Structures can show the parent of a compound that is named as a salt.
result.type: melting point

Below is a list of compounds. For each, state its recorded melting point.
1. Cc1cc(C)nc(N(C)c2ccc(C(C)C)cc2Br)n1 (as salt: hydrochloride)
2. CCN(c1nc(C)cc(C(=O)c2ccco2)n1)c1ccc(C(C)C)cc1Br
3. C=CCN(c1nc(C)cc(N2CCOCC2)n1)c1ccc(C(C)C)cc1Br (as salt: hydrochloride)
4. CCN(c1nc(C)cc(N2CC[S+]([O-])CC2)n1)c1ccc(C(C)C)cc1I
5. CCN(c1nc(C)cc(C)n1)c1c(Cl)cc(OC)cc1OC
6. CCCCN(c1nc(C)cc(C)n1)c1ccc(C(C)C)cc1Br
7. CCCCc1ccc(N(CCC)c2nc(C)cc(C)n2)c(Br)c1

1. 163 to 164 °C
2. 136 to 138 °C
3. 208 to 211 °C
4. 52 to 55 °C
5. 99 to 102 °C
6. 159 to 160 °C
7. 49 to 50 °C

The compound CCCCc1ccc(N(CC)c2nc(C)cc(C)n2)c(Br)c1 (as salt: hydrochloride) showed melting point equal to 124 to 126 °C

---

Counter-ions that a name gives are not always drawn.
Would you kindly list melting point for each of these compounds?

CCN(c1nc(C)cc(OCCN(C)C)n1)c1ccc(C(C)C)cc1Br (as salt: hydrochloride) : 143 to 146 °C
CCN(c1nc(C)cc(C)n1)c1ccc(C(C)=O)cc1SC : 125 to 126 °C
CCN(c1nc(C)cc(C(=O)N2CCCCC2)n1)c1ccc(C(C)C)cc1Br : 107 to 108 °C

Below is a list of compounds. For each, state its recorded melting point.
1. CCN(c1nc(C)cc(C)n1)c1ccc(NC)cc1SC
2. CCN(c1nc(C)cc(C)n1)c1ccc(OC)cc1OC
3. CCN(c1nc(C)cc(C(O)(c2ccc(OC)cc2)c2ccc(OC)cc2)n1)c1ccc(C(C)C)cc1Br
4. CCN(c1nc(C)cc(CN2CCN(c3ccccn3)CC2)n1)c1ccc(C(C)C)cc1Br (as salt: HCl)
5. CCN(c1nc(C)cc(CN2CCN(c3ncccn3)CC2)n1)c1ccc(C(C)C)cc1Br (as salt: HCl)

1: 141 to 142 °C; 2: 120 to 121 °C; 3: 63 to 65 °C; 4: 117 to 119 °C; 5: 125 to 127 °C

Below is a list of compounds. For each, state its recorded melting point.
1. CCN(c1nc(C)cc(N2CCN(C=O)CC2)n1)c1ccc(C(C)C)cc1Br
2. CCN(c1nc(C)nc(N2CCOCC2)n1)c1c(Br)cc(OC)cc1OC
3. Cc1cc(N2CCCC2)nc(N(C)c2ccc(C(C)C)cc2Br)n1
4. CCN(c1nc(C)cc(C)n1)c1c(OC)cc(OC)cc1OC
5. CCCCc1ccc(N(CC)c2nc(CC)cc(CC)n2)c(Br)c1 (as salt: hydrochloride)
6. CCCN(c1nc(C)cc(C)n1)c1ccc(C(C)C)cc1Br
7. COc1ccc(N(C)c2nc(C)cc(C)n2)c(OC)c1 (as salt: hydrochloride)
8. CCN(c1nc(C)cc(C)n1)c1ccc(C(C)C)cc1SC (as salt: hydrochloride) [compound 170]

1: 61 to 63 °C; 2: 90 to 95 °C; 3: 119 to 120 °C; 4: 115 to 116 °C; 5: 116 to 118 °C; 6: 150 to 151 °C; 7: 112 to 113 °C; 8: 141 to 142 °C
